target of assay: purified catalytic domain of recombinant human TACE (rhTACEc) (Homo sapiens, UniProt P78536, N452Q/S266A)
Construct: rhTACEc, Residue 215 to 477 with two mutation (S266A and N4520) and a 6×His tail; 6xHis (C); made in house; host or cells: baculovirus/Hi5 insect cells
Sequence (P78536 215-477 S266A/N452Q limits assumed): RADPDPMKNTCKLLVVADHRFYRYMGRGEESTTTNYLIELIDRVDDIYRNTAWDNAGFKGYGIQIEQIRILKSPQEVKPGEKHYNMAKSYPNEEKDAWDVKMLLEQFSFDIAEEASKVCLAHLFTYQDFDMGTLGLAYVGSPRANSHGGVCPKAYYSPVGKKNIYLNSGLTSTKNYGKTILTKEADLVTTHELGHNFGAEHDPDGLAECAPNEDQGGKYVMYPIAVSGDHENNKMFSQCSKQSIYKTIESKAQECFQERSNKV
protocol summary: TACE kinetic assay, cleavage of internally quenched fluorescent peptide substrate SPDL-3
Assay type: biochemical
test conditions: TACE; class letters A-D; read-out: Ki Rating
Catalogue of Ki readings, one per entry.

Examples from the recorded data:
Input: // lookup Ki for COc1ccc2c(c1)C(=O)N(C[C@@]1(C#Cc3ccc(N)c(OC(F)(F)F)c3)NC(=O)NC1=O)C2 [Compound 1216]
Output: < 5 nM

Input: Repeat with COc1ccc2c(c1)C(=O)N(C[C@@]1(C#Cc3cccc4cn[nH]c34)NC(=O)NC1=O)C2 [Compound 1015]
Output: < 5 nM

Input: Again, but for CON=Cc1ccc(C#C[C@]2(CN3Cc4ccc(OC)cc4C3=O)NC(=O)NC2=O)s1 [Compound 1084]
Output: < 5 nM

Input: Now the molecule COc1ccc2c(c1)C(=O)N(C[C@@]1(C#Cc3cncc(Cl)c3)NC(=O)NC1=O)C2 [Compound 1006]
Output: < 5 nM

Input: Please answer likewise for COc1ccc2c(c1)C(=O)N(C[C@@]1(C#Cc3cnc4[nH]c(=O)[nH]c4c3)NC(=O)NC1=O)C2 [Compound 1013]
Output: < 5 nM

Moving on to another molecule below.
Input: Please look up its Ki: COc1ccc2c(c1)C(=O)N(C[C@@]1(C#Cc3cccnc3C#N)NC(=O)NC1=O)C2 [Compound 1018]
Output: < 5 nM

---

target of assay: purified catalytic domain of recombinant human TACE (rhTACEc) (Homo sapiens, UniProt P78536, N452Q/S266A)
Construct: rhTACEc, Residue 215 to 477 with two mutation (S266A and N4520) and a 6×His tail; 6xHis (C); made in house; host or cells: baculovirus/Hi5 insect cells
protocol summary: TACE kinetic assay, cleavage of internally quenched fluorescent peptide substrate SPDL-3
Format: biochemical
test conditions: rhTACEc 70 pM, 30 μM SPDL-3, 90 min pre-incubation at 25° C.; read-out: Ki (nM), TACE inhibitory activity
metric: Ki (nM)

Input: Item under review: CCNc1nnc(-c2ccc(C#C[C@]3(CN4Cc5ccc(OC)cc5C4=O)NC(=O)NC3=O)cn2)o1 [Compound 1502] . Reported Ki?
Output: 0.094

I. COc1ccc2c(c1)C(=O)N(C[C@@]1(C#Cc3cncc(N)c3)NC(=O)NC1=O)C2 [Compound 554]
II. COc1ccc2c(c1)C(=O)N(C[C@@]1(C#Cc3ccc4nc(N)[nH]c4c3)NC(=O)NC1=O)C2 [Compound 1009]
III. COc1ccc2c(c1)C(=O)N(C[C@@]1(C#Cc3ccc(N)nc3)NC(=O)NC1=O)C2 [Compound 1152]
IV. COc1ccc2c(c1)C(=O)N(C[C@@]1(C#Cc3cccnc3N)NC(=O)NC1=O)C2 [Compound 930]
V. COc1ccc2c(c1)C(=O)N(C[C@@]1(C#Cc3ccc4scnc4c3)NC(=O)NC1=O)C2 [Compound 972]
Input: List items by Ki in falling order. Please list the labels in the order you were asked to rank them.
Output: II, IV, I, V, III
(II: 1.33 nM, IV: 0.56 nM, I: 0.31 nM, V: 0.12 nM, III: 0.03 nM)
